Taken from ChEMBL document CHEMBL1201862.

tested on: NCI-H23; assay: NCI tumour cell line growth inhibition, 48 h
The source made the active and inactive calls. Rule as the data show it: active = GI50 up to about 1.1 µM and inactive = higher.
attribute-measured: GI50

-- ask Report GI50, nothing else, for this molecule: Cn1c(=O)c2c(nc(C(=N)SCC(=O)O)n2C)n(C)c1=O
-- reply 27.7 µM (inactive)

-- ask Report GI50, nothing else, for this molecule: Cc1ncc([N+](=O)[O-])n1CC[N+](C)([O-])CCCCn1ccnc1[N+](=O)[O-] (stereo not given)
-- reply > 100 µM (inactive)

-- ask Report GI50, nothing else, for this molecule: CCOC(=O)C1S(=O)(=O)OCCOS1(=O)=O
-- reply > 100 µM (inactive)

-- ask Report GI50, nothing else, for this molecule: O=S(=O)(F)Cc1ccccc1 [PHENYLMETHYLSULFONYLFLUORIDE]
-- reply > 100 µM (inactive)

-- ask Report GI50, nothing else, for this molecule: Cc1ccc2c(c1)CC1(C2)Cc2ccc(C)cc2C1=O (stereo not given)
-- reply 36.5 µM (inactive)

-- ask Report GI50, nothing else, for this molecule: CC1/C(=N\O)CC(c2ccccc2)N(C)C1c1ccccc1 (stereo not given)
-- reply > 100 µM (inactive)

-- ask Report GI50, nothing else, for this molecule: CC(NC(=O)c1ccc(OP(=O)(OCC2=CC(=O)c3ccccc3C2=O)N(C)CCCCCl)cc1)c1ccc(OCC2CCCCC2)c(C(N)=O)c1 (stereo not given)
-- reply 2.7 µM (inactive)

-- ask Report GI50, nothing else, for this molecule: CC(=O)c1cccc(NC(=O)C(=O)C(C(=O)c2ccccc2F)C2OC(=O)c3ccccc32)c1 (stereo not given)
-- reply 33.8 µM (inactive)

-- ask Report GI50, nothing else, for this molecule: CCOC(=O)C1C(=O)CN2CCc3c([nH]c4ccccc34)C12C(=O)OCC (stereo not given)
-- reply > 100 µM (inactive)

-- ask Report GI50, nothing else, for this molecule: CCOC(=O)c1nc2ccc(C(F)(F)F)cc2nc1NCc1ccc(Cl)c(Cl)c1
-- reply 40 µM (inactive)

###

tested on: A549; assay: NCI tumour cell line growth inhibition, 48 h
Activity calls are given as the source filed them. Cut-off read from the data, not from the text of the source: active = GI50 up to about 1.1 µM and inactive = higher.
Your response should consist of one outcome taken from T for active, F for inactive

-- ask Any idea what this test logged for CC(C)C1=CC(=O)[C@@](C)(C2[C@H](O)C[C@@]3(C)[C@@H]4CC=C5[C@@H](CC[C@@H](OC6OCC(O)C(O)C6OC6OC(C)C(O)C(O)C6O)C5(C)C)[C@]4(C)C(=O)C[C@]23C)O1 (some centres not stated) ?
-- reply F

-- ask Any idea what this test logged for CC1C(c2ccc(Cl)cc2)c2cc3c(cc2OC1N1CCOCC1)OCO3 (configuration not stated) ?
-- reply F

-- ask Any idea what this test logged for CC1=C2C3OC(=O)C(C)C3C(O)C[C@@]2(C)C(=O)CC1 (some centres not stated) ?
-- reply F

-- ask Any idea what this test logged for CC1=CC(=O)NCCN1C ?
-- reply F

-- ask Any idea what this test logged for Cc1ccc([N+](=O)[O-])cc1S(=O)(=O)Nc1ccc(C(=O)/C=C/c2ccccc2)cc1 ?
-- reply F

-- ask Any idea what this test logged for CC(=O)c1cccc(NC(=O)C(=O)C(C(=O)c2ccccc2F)C2OC(=O)c3ccccc32)c1 (configuration not stated) ?
-- reply F

-- ask Any idea what this test logged for COc1ccc2nc3cccc(C(=O)NCCN(C)C)c3nc2c1 ?
-- reply F

-- ask Any idea what this test logged for CN(C)C(=O)/N=c1\ss/c(=N\C(=S)N(C)C)n1-c1ccccc1 ?
-- reply F

-- ask Any idea what this test logged for CNNC(=NS(=O)(=O)c1cc(C#N)c(NNC)cc1S)NNC ?
-- reply F

-- ask Any idea what this test logged for O=c1c2ccccc2[nH]c(=S)n1-c1ccc(/N=N/c2cccc3cc(O)ccc23)cc1 ?
-- reply F

-- ask Any idea what this test logged for CCc1nc(N)nc(N)c1-c1ccc(Cl)c(Cl)c1 [ETOPRINE] ?
-- reply T

-- ask Any idea what this test logged for Cc1c2cc[n+](C)cc2c(C)c2c1[nH]c1ccc(Cl)cc12 ?
-- reply T

-- ask Any idea what this test logged for O=C(O)c1ccccc1-c1ccccc1C(=O)Nc1ccc2c(c1)Cc1cc(F)ccc1-2 ?
-- reply F

-- ask Any idea what this test logged for CCc1nnc(CC)n1NCCCC(=O)O ?
-- reply F

-- ask Any idea what this test logged for CC(Br)C(=O)NC(CO)C(=O)O (configuration not stated) ?
-- reply F

-- ask Any idea what this test logged for Cc1ccc(S(=O)(=O)NN=C2CCCCCCCCCCC2)cc1 ?
-- reply F

-- ask Any idea what this test logged for CC1(C)C2CCC3(OCCO3)C1C1OC12 (configuration not stated) ?
-- reply F

-- ask Any idea what this test logged for O=c1[nH]c2cc(C(F)(F)F)ccc2nc1C(F)(F)F ?
-- reply F

-- ask Any idea what this test logged for O=S(=O)(N/N=C/c1c(Cl)cccc1Cl)c1ccccc1 ?
-- reply F

-- ask Any idea what this test logged for CN1CCN(Cc2nc3cccc4c3c([n+]2[O-])-c2ccccc2-4)CC1 ?
-- reply F

-- ask Any idea what this test logged for CN(Cc1ccccc1)c1cc(=O)n(C)c(=O)[nH]1 ?
-- reply F

-- ask Any idea what this test logged for O=C(O)C(Br)C(Br)C(=O)O (configuration not stated) ?
-- reply F
